Test system: MS2 coat protein
Assay info: apparent KD of MS2 coat protein; designed switch direction (-1 OFF switch, 1 ON switch): 1; higher = weaker reporter binding
Test context: input ligand: FMN 200 uM
Observed property: apparent KD of MS2 coat protein (nM)

AAUUAAUUAAUUAAGUACAUGAGGAUCACCCAUGUAAGUGAUCAGGAUAUCAGCUCGUUUAGAGCUGAGAAGGGAUCCAUGUAC [SSNG3/15-A3] (Eterna round: R96, puzzle: Same State NG 3)    360
AAGAUGCUCGUAGGAUAUUGGAAAGGAAGUGUACAAGAAGGACGGUGUCACAUGAGGAUCACCCAUGUUACAGUCUAAUGACUG [PowerStrip SSNG 1.1] (Eterna round: R96, puzzle: Same State NG 1)    18.7
AUUAUUUAUGCAGGAUAUGAUUAACAUGAGGAUCACCCAUGUGGUGUUGUGAGUAAGGAGAGUGAUCAGAAGGGCAUUGUUUUU [JMF's solution 46] (Eterna round: R96, puzzle: Same State NG 2)    1450

====

Test system: K4 kissing-loop RNA reporter;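 also: bound reporter read as fluorescence of individual clusters on recovered sequencing chips by microscopy, with normalized cluster intensities fitted with a binding model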
Assay info: apparent KD of K4 kissing-loop reporter; higher = weaker reporter binding
Test context: Eterna round: R107; input ligand: tryptophan 2.4 mM
Use true (1) when the recorded apparent KD of K4 kissing-loop reporter is no lower than 100 nM; use false (0) when it is lower.

UAUUCUUAUCUUAGUUGAUUUCUAAUUAAACGAGGACCGGUACGGCCGCCACUCGGUUAUGAGUGAUGUUCAUGGAAUUACAUAA [JR_SSTryptoA_Sub020]    true (1)
UGAUUGCCAGUGAUGUUGGCAGUUUCUGAAGGAGCGCGUGAAAACGCAGGUAGGUCGCAGAUUAGUGCCAAUUGAUCGAAAGAUC [KL-XArg-A4]    true (1)
UACUUUAAUUUAUAACUAUCUUUAUUUUGUCAGGAUAUCGUAUAGUCGAGAAGGGACUCUAUCAAGUGAUGUUUGAUAUAUCGUU [JR_SSFMNA_Sub025]    true (1)
UUAGUCUAGAGAAGGAGCGAGUGAUGUUCGCAUGCUAUGAUGAAUUCAUCAUAGUUUAAUCCUCAGGUAGGUCGCUCUAGACAUU [AK7 Exc Arginine B]    true (1)
CAGAACUUAUAUAGAAACUAUAUAAGAGAUACCAGUCAAAUUAAAGACCCUUGGCAGCUCAGGCGAGUGAUGUUCGCAGGCUAAC [Astros-Gfrank-modulation#1]    false (0)
UAUCUUUACUGAAGGAGCGAGCAUUUUGGAGUGAUGUUCCGAGCGAGUGAUGUUCGCAUAGCUCAGGUAGGUCGCAGUGGGAAAA [Same State Arginie B GF 15]    true (1)

====

System: MS2 coat protein
Assay info: apparent KD of MS2 coat protein; designed switch direction (-1 OFF switch, 1 ON switch): -1; higher = weaker reporter binding
Test context: input ligand: none
Below, each entry is listed alongside its reported apparent KD of MS2 coat protein.
Observed property: apparent KD of MS2 coat protein (nM)

UGAGUGCUGCGAGGAUAUACAUGAGGAUCACCCAUGUAAUCGUGUGAGGCAAAGCCUCACACGAAGUAGAAGGCGCAGUACUCA [Mat - Exclusion NG 2 - Mod of JL - D18] (Eterna round: R96, puzzle: Exclusion NG 2)    18.6
UUUUAGUAAGGAUAUGAUUAGAUCUACGAAAGUAGAUCUAAUCAGAAGGUACAUGAGGAUCACCCAUGUAGAUU [Mod of Brourd 3 - Jieux - Exclusion 4] (Eterna round: R97, puzzle: Exclusion 4)    18.5
UGAGUGCUGCGAGGAUAUACAUGAGGAUCACCCAUGUAAUCGUGUGAGGCUUUGCCUCACACGAAGUAGAAGGCGCAGUACUCU [JL ENG2 1.10] (Eterna round: R96, puzzle: Exclusion NG 2)    13.5
CCGUUCCGUGUAGGAUAUUGGCCUUCCUCGGGCCGAGAAGGACAUGAGGAUCACCCAUGUAUGCUAUUAUCGCGCGUGGCGCCC [Design 98] (Eterna round: R96, puzzle: Exclusion NG 1)    39.8
AUCGUGCAGCUUUGCUGUACGAGUACAUGAGGAUCACCCAUGUAGGAUAUGGUACGCUUUGCGUGCUAGAAGGAUAUGAGUAGG [EX ENG3 1.42] (Eterna round: R96, puzzle: Exclusion NG 3)    48.3
GACAUACAUGAGGAUCACCCAUGUAAGGAUAUACGCAGUAGACUCCGAGGGACCUGAAGUAGAAGGUACAGGGU [Eternabot (L2) Solution 72] (Eterna round: R97, puzzle: Exclusion 1)    34.5
ACAUGAGGAUCACCCAUGUACACGUAAUGGCUCAUGUAGAGUGAGGAUAUGUGAGACGAACGAGCACAGAAGGCACAAGACUGG [Deportation 11 - Jieux - Exclusion NG 3] (Eterna round: R96, puzzle: Exclusion NG 3)    45.4
UCUCAGUCAGGAUAUCGUUAAUUUAAUUGUUUGUAUUAGUUCGAGAAGGGACAUGAGGAUCACCCAUGUACUCU [Ex4 #18] (Eterna round: R97, puzzle: Exclusion 4)    18.8
CCAAAGCGAGGAUAUACUUGCGACCCAAGCGUGGAAGACAUACUUGAGGAUCACCCAAGUAGAAGGCGCGCCAA [Dibixela] (Eterna round: R97, puzzle: Exclusion 2)    92
CAGUACUGAGGAUAUACAUGAGGAUCACCCAUGUGCACCAGCUAGGAUACUAGCAAAAGUAGAAGGCAGUACUG [Mat - Exclusion 3 - Eli Mod - D19] (Eterna round: R97, puzzle: Exclusion 3)    16.1
AUGAAGUAAGGAUAUUAUCGCGGGCAGAGGCCCAGCUCAUAUGAGAAGGUACAUGAGGAUCACCCAUGUCCUCU [Eternabot (L2) Solution 72] (Eterna round: R97, puzzle: Exclusion 4)    30
AGGACGGCAGGAUAUACAUGAGGAUCACCCAUGUCUGGUGUCGAGCUAAUUGUGCAUAGUAGAAGGGUCGCUCC [Eternabot (L1) Solution 39] (Eterna round: R97, puzzle: Exclusion 3)    62.1
UGGUCACAUGAGGAUCACCCAUGUCAGGAUAUCGUCACUGGAGCCUCGGCUCCAGUGACGAGAAGGGACAUAAU [E1/6-A2] (Eterna round: R97, puzzle: Exclusion 1)    254
AGAGUGCUGCGAGGAUAUACAUGAGGAUCACCCAUGUAAAAGUGUGAGGCUUUGCCUCACACGAAGUAGAAGGCGCAGUACUCA [Mat - Exclusion NG 2 - Mod of JL - D33] (Eterna round: R96, puzzle: Exclusion NG 2)    24.3
AUAAAUCAUGUAGGAUAUGCGUGGCGAAGCUAUGCAGAAGGACAUGAGGAUCACCCAUGUCUUUCCGUCUGCGUACAGACGGAA [Mat - Exclusion NG 1 - Mod of JL - D41] (Eterna round: R96, puzzle: Exclusion NG 1)    24.5
ACUUAUAGAGGAUAUACAGUUAAUUACAUGAGGAUCACCCAUGUUCUUCAAUGUAUAUAAGUAGAAGGCAAAGGAA [Mat - Exclusion 5 - Eli Mod - D3] (Eterna round: R97, puzzle: Exclusion 5)    16.2
GGACCGUAAGGAUAUGGCACGAAUCGACAGUCGAUCUCGAGCUAGAAGGUACAUGAGGAUCACCCAUGUCCGUU [Eternabot (L1) Solution 13] (Eterna round: R97, puzzle: Exclusion 4)    19.2
CCUCCACAGUAGGAUAUCAUCAAACUAUUGUGAUGAGAAGGACUGACAUGAGGAUCACCCAUGUUAACGUGAUG [Mod of Brourd 7 - Jieux - Exclusion 6] (Eterna round: R97, puzzle: Exclusion 6)    22.9
